Some compounds, each annotated with its measured inhibition at 100 µM.
- measurement_target: A₂ receptor (Rattus norvegicus, UniProt P30543)
- Construct: from tissue; host or cells: rat corpus striatum membrane preparation
- Sequence (P30543 whole entry): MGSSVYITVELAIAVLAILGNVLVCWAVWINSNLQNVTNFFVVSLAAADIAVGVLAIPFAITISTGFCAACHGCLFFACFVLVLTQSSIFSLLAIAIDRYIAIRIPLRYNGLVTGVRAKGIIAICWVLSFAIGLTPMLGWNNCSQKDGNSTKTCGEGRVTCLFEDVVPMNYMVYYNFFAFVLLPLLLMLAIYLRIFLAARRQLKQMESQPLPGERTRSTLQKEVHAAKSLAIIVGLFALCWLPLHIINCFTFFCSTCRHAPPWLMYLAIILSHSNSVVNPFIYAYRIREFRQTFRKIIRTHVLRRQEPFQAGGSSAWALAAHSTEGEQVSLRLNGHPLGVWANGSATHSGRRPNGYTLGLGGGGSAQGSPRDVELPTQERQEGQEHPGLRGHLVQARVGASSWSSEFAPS
- test: Adenosine A₂ receptor binding test (³H-NECA binding)
- condition_notes: 10⁻⁴M; ³H-NECA binding, rat corpus striatum; read-out: Inhibition (%) A₂ Receptor
Write the value in % as a bare number.

Below: 2 compounds and their reported inhibition at 100 µM.
[[record]]
compound = "CCn1c(=O)c2[nH]c(/C=C/c3cccc(OC)c3[N+](=O)[O-])nc2n(CC)c1=O"
readout_number = 79

[[record]]
compound = "CCn1c(=O)c2c(nc(/C=C/c3ccc(OC)c(OC)c3Cl)n2C)n(CC)c1=O"
readout_number = 93


**Query** Entry CCn1c(=O)c2[nH]c(/C=C/c3ccc(OC)c(OC)c3Cl)nc2n(CC)c1=O : reported inhibition at 100 µM = ?
**Result** 112

* * *

- measurement_target: A₂ receptor (Rattus norvegicus, UniProt P30543)
- Construct: from tissue; host or cells: rat corpus striatum membrane preparation
- test: Adenosine A₂ receptor binding test (³H-NECA binding)
- condition_notes: read-out: Inhibition (%) A₂ Receptor
Some molecules, each annotated with its measured inhibition at 1 µM.
Write the value in % as a bare number.

[[record]]
compound = "COc1ccc(/C=C/c2nc3c(c(=O)n(C)c(=O)n3C)n2C)c(C)c1C"
measured_endpoint = "inhibition at 1 µM"
quantity_unit = "%"
readout_number = 85

[[record]]
compound = "COc1ccc(/C=C/c2nc3c([nH]2)c(=O)n(C)c(=O)n3C)c(C)c1C"
measured_endpoint = "inhibition at 1 µM"
quantity_unit = "%"
readout_number = 68

[[record]]
compound = "CCn1c(=O)c2c(nc(/C=C/c3ccc(OC)c(C)c3C)n2C)n(CC)c1=O"
measured_endpoint = "inhibition at 1 µM"
quantity_unit = "%"
readout_number = 94


Would you kindly look at the next entry?
**Query** Entry CCn1c(=O)c2[nH]c(/C=C/c3ccc4c(c3)OCO4)nc2n(CC)c1=O : reported inhibition at 1 µM = ?
**Result** 64

* * *

- measurement_target: A₂ receptor (Rattus norvegicus, UniProt P30543)
- Construct: from tissue; host or cells: rat corpus striatum membrane preparation
- test: Adenosine A₂ receptor binding test (³H-NECA binding)
- condition_notes: read-out: Inhibition (%) A₂ Receptor
Record Y whenever inhibition at 100 µM is at 80% or higher; record N when lower.

[[record]]
compound = "CCn1c(=O)c2c(nc(/C=C/c3ccc(OC)c(OC)c3OC)n2C)n(CC)c1=O"
measurement_target = "A₂ receptor (Rattus norvegicus, UniProt P30543)"
class_label = "N"

[[record]]
compound = "CCn1c(=O)c2[nH]c(/C=C/c3ccc(OC)c(OC)c3OC)nc2n(CC)c1=O"
measurement_target = "A₂ receptor (Rattus norvegicus, UniProt P30543)"
class_label = "Y"

[[record]]
compound = "CCn1c(=O)c2[nH]c(/C=C/c3ccc(OC)c(C)c3OC)nc2n(CC)c1=O"
measurement_target = "A₂ receptor (Rattus norvegicus, UniProt P30543)"
class_label = "Y"


**Query** Does the reported inhibition at 100 µM for CCn1c(=O)c2c(nc(/C=C/c3ccc(OC)c(C)c3C)n2C)n(CC)c1=O fall at or above the 80% mark?
**Result** Y

**Query** Does the reported inhibition at 100 µM for Cn1c(=O)c2c(nc(/C=C/c3ccc4c(c3)OCO4)n2C)n(C)c1=O [Compound 24, (E)-8-(3,4-Methylenedioxystyryl)caffeine] fall at or above the 80% mark?
**Result** Y

**Query** Does the reported inhibition at 100 µM for CCn1c(=O)c2c(nc(/C=C/c3ccc4c(c3)OCO4)n2C)n(CC)c1=O fall at or above the 80% mark?
**Result** Y

* * *

- System: Haloperidol-Induced Catalepsy
- test: Effect on haloperidol-induced catalepsy
- Format: in vivo, mice
- condition_notes: of five mice, catalepsy score not more than 4 points; 10 mg/kg orally
- Procedure: Haloperidol (Janssen Pharmaceutica) suspended in 0.3% CMC was intraperitoneally administered to each mouse at a dose of 1.0 mg/kg. Test compounds were suspended in 0.3% CMC or in injectable distilled water (Otsuka Pharmaceutical Co., Ltd.) containing Tween 80. L-DOPA (Kyowa Hakko Kogyo Co., Ltd.) and benserazide hydrochloride (Kyowa Hakko Kogyo Co., Ltd.) were suspended in 0.3% CMC. […] The ED₅₀ values were calculated by Probit analysis.
measured_endpoint: Number of the Animals Showing Remission
Keep the answer to the number alone.

Below: 5 compounds and their reported Number of the Animals Showing Remission.
[[record]]
compound = "COc1ccc(/C=C/c2nc3c(c(=O)n(C)c(=O)n3C)n2C)c(Cl)c1OC [Compound 52]"
readout_number = 5

[[record]]
compound = "CCn1c(=O)c2c(nc(/C(F)=C\\c3ccccc3)n2C)n(CC)c1=O [Compound 76]"
readout_number = 4

[[record]]
compound = "CCn1c(=O)c2c(nc(/C=C/c3cccc(OC)c3[N+](=O)[O-])n2C)n(CC)c1=O [Compound 64]"
readout_number = 4

[[record]]
compound = "CCn1c(=O)c2c(nc(/C=C/c3cc(OC)c4c(c3)OCO4)n2C)n(CC)c1=O [Compound 107]"
readout_number = 5

[[record]]
compound = "CCn1c(=O)c2c(nc(/C=C/c3ccc4c(c3)OCCO4)n2C)n(CC)c1=O [Compound 18]"
readout_number = 5


**Query** Entry CCn1c(=O)c2c(nc(/C=C/c3cc(C)c(OC)cc3C)n2C)n(CC)c1=O [Compound 12] : reported Number of the Animals Showing Remission = ?
**Result** 5

**Query** Entry COc1ccc(/C=C/c2nc3c([nH]2)c(=O)n(C)c(=O)n3C)c(OC)c1C [Compound 31] : reported Number of the Animals Showing Remission = ?
**Result** 4

* * *

Some compounds, each annotated with its measured inhibition at 1 µM.
- measurement_target: A₂ receptor (Rattus norvegicus, UniProt P30543)
- Construct: from tissue; host or cells: rat corpus striatum membrane preparation
- test: Adenosine A₂ receptor binding test (³H-NECA binding)
- condition_notes: 10⁻⁶M; ³H-NECA binding, rat corpus striatum; read-out: Inhibition (%) A₂ Receptor
Write the value in % as a bare number.

Below: 2 compounds and their reported inhibition at 1 µM.
[[record]]
compound = "CCn1c(=O)c2[nH]c(/C=C/c3ccc(OC)c(Br)c3)nc2n(CC)c1=O [Compound 55]"
readout_number = 65

[[record]]
compound = "COc1cccc(/C=C/c2nc3c(c(=O)n(C)c(=O)n3C)n2C)c1OC [Compound 26, (E)-8-(2,3-Dimethoxystyryl)caffeine]"
readout_number = 59


**Query** Entry Cn1c(=O)c2[nH]c(/C=C/c3ccc4c(c3)OCO4)nc2n(C)c1=O [Compound 23] : reported inhibition at 1 µM = ?
**Result** 60

**Query** Entry CCn1c(=O)c2[nH]c(/C=C/c3ccc(N(C)C)cc3)nc2n(CC)c1=O [Compound 99] : reported inhibition at 1 µM = ?
**Result** 64

* * *

Some molecules, each annotated with its measured inhibition at 10 µM.
- measurement_target: A₁ receptor (Cavia porcellus, UniProt P47745)
- Construct: from tissue; host or cells: guinea pig cerebrum membrane preparation
- Sequence (P47745 whole entry): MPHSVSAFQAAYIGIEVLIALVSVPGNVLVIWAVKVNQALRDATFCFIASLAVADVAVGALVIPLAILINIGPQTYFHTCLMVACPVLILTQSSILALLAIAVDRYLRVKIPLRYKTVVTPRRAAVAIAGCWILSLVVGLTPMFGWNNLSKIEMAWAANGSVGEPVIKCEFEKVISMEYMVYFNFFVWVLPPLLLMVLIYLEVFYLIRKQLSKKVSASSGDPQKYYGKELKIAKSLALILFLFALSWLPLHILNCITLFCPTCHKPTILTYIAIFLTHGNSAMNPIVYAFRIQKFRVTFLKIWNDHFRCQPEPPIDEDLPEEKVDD
- test: Adenosine A₁ receptor binding test (³H-CHA binding)
- Set-up: species or system guinea pig
- condition_notes: 10⁻⁵M, guinea pig cerebrum
- Procedure: Cerebrum of a guinea pig was suspended in ice-cooled 50 mM Tris hydroxymethyl aminomethane hydrochloride (Tris HCl) buffer (pH 7.7) by using Polytron homogenizer (manufactured by […] Co.). […] The radioactivity on the filter was determined with a liquid scintillation counter (manufactured by Packard Instrument Co.). […] The inhibition constant (Ki value) shown in the table was calculated by the Cheng-Prusoff's equation.

[[record]]
molecule = "CCn1c(=O)c2[nH]c(/C=C/c3ccc(OC)c(OC)c3)nc2n(CC)c1=O"
result = "84%"

[[record]]
molecule = "Cn1c(=O)c2c(nc(/C=C/c3ccc4c(c3)OCO4)n2C)n(C)c1=O [Compound 24, (E)-8-(3,4-Methylenedioxystyryl)caffeine]"
result = "-4%"

[[record]]
molecule = "COc1ccc(/C=C/c2nc3c([nH]2)c(=O)n(C)c(=O)n3C)c(OC)c1OC"
result = "10%"

[[record]]
molecule = "CCn1c(=O)c2c(nc(/C=C/c3ccc4c(c3)OCO4)n2C)n(CC)c1=O"
result = "53%"

[[record]]
molecule = "CCn1c(=O)c2c(nc(/C=C/c3cccc(OC)c3OC)n2C)n(CC)c1=O"
result = "55%"

[[record]]
molecule = "COc1ccc(/C=C/c2nc3c([nH]2)c(=O)n(C)c(=O)n3C)c(C)c1C"
result = "36%"

[[record]]
molecule = "Cn1c(=O)c2[nH]c(/C=C/c3ccc4c(c3)OCO4)nc2n(C)c1=O"
result = "32%"

[[record]]
molecule = "CCn1c(=O)c2c(nc(/C=C/c3ccc(OC)c(OC)c3OC)n2C)n(CC)c1=O"
result = "89%"


**Query** Entry CCn1c(=O)c2c(nc(/C=C/c3ccc(OC)c(C)c3C)n2C)n(CC)c1=O : reported inhibition at 10 µM = ?
**Result** 57%

**Query** Entry CCn1c(=O)c2c(nc(/C=C/c3ccc4c(c3)OCCO4)n2C)n(CC)c1=O : reported inhibition at 10 µM = ?
**Result** 56%

Where do the numbers come from? From patent EP0590919A1.
